# Test system: Enterococcus faecalis
# EXPERIMENTAL_DETAILS: Antimicrobial activity against Enterococcus faecalis J2 harboring erythromycin-resistance rRNA methylase B and oxazolidinone phenicol transferable resistance gene assessed as inhibition of visible growth of bacteria incubated for 20 hrs by broth microdilution method
# Type: functional
Entries and their MIC

[
  {
    "MOLECULE": "CO[C@@]1(NC(=O)Cc2cccs2)C(=O)N2C(C(=O)O)=C(COC(N)=O)CS[C@@H]21 [CEFOXITIN]",
    "MIC": "> 32 µg/mL"
  },
  {
    "MOLECULE": "CC1C/C(=C\\c2ccc(-c3ccc(Cl)c(C(F)(F)F)c3)s2)c2nc3ccccc3c(C(=O)O)c2C1 (racemic)",
    "MIC": "2 µg/mL"
  },
  {
    "MOLECULE": "CCCCCCc1ccc(-c2ccc(/C=C3\\CC(C)Cc4c3nc3ccc(OC)cc3c4C(=O)O)cn2)cc1 (racemic)",
    "MIC": "4 µg/mL"
  },
  {
    "MOLECULE": "C[C@H]1c2cccc(O)c2C(=O)C2=C(O)[C@]3(O)C(=O)C(C(N)=O)=C(O)[C@@H](N(C)C)[C@@H]3[C@@H](O)[C@@H]21 [DOXYCYCLINE ANHYDROUS]",
    "MIC": "8 µg/mL"
  },
  {
    "MOLECULE": "COc1ccc2nc3c(c(C(=O)O)c2c1)CC(C)C/C3=C\\c1cccc(-c2ccc(Cl)c(C(F)(F)F)c2)c1 (racemic)",
    "MIC": "8 µg/mL"
  },
  {
    "MOLECULE": "O=C(O)c1cn(C2CC2)c2cc(N3CCNCC3)c(F)cc2c1=O [CIPROFLOXACIN]",
    "MIC": "0.5 µg/mL"
  },
  {
    "MOLECULE": "CC1(C)S[C@@H]2[C@H](NC(=O)[C@H](N)c3ccccc3)C(=O)N2[C@H]1C(=O)O [AMPICILLIN]",
    "MIC": "> 32 µg/mL"
  },
  {
    "MOLECULE": "CN[C@H](CC(C)C)C(=O)N[C@H]1C(=O)N[C@@H](CC(N)=O)C(=O)N[C@H]2C(=O)N[C@H]3C(=O)N[C@H](C(=O)N[C@H](C(=O)O)c4cc(O)cc(O)c4-c4cc3ccc4O)[C@H](O)c3ccc(c(Cl)c3)Oc3cc2cc(c3O[C@@H]2O[C@H](CO)[C@@H](O)[C@H](O)[C@H]2O[C@H]2C[C@](C)(N)[C@H](O)[C@H](C)O2)Oc2ccc(cc2Cl)[C@H]1O [VANCOMYCIN]",
    "MIC": "2 µg/mL"
  },
  {
    "MOLECULE": "CNC(C)[C@@H]1CC[C@@H](N)[C@@H](O[C@H]2[C@H](O)[C@@H](O[C@H]3OC[C@](C)(O)[C@H](NC)[C@H]3O)[C@H](N)C[C@@H]2N)O1.CN[C@@H]1[C@@H](O)[C@@H](O[C@@H]2[C@@H](O)[C@H](O[C@H]3O[C@H](C(C)N)CC[C@H]3N)[C@@H](N)C[C@H]2N)OC[C@]1(C)O.CN[C@@H]1[C@@H](O)[C@@H](O[C@@H]2[C@@H](O)[C@H](O[C@H]3O[C@H](CN)CC[C@H]3N)[C@@H](N)C[C@H]2N)OC[C@]1(C)O (stereo partly specified)",
    "MIC": "8 µg/mL"
  },
  {
    "MOLECULE": "CCC[C@@H]1C[C@@H](C(=O)N[C@@H]([C@H]2O[C@H](SC)[C@H](O)[C@@H](O)[C@H]2O)[C@H](C)Cl)N(C)C1 [CLINDAMYCIN]",
    "MIC": "> 32 µg/mL"
  },
  {
    "MOLECULE": "CC[C@H]1OC(=O)[C@H](C)[C@@H](O[C@H]2C[C@@](C)(OC)[C@@H](O)[C@H](C)O2)[C@H](C)[C@@H](O[C@@H]2O[C@H](C)C[C@H](N(C)C)[C@H]2O)[C@](C)(O)C[C@@H](C)C(=O)[C@H](C)[C@@H](O)[C@]1(C)O [ERYTHROMYCIN]",
    "MIC": "> 32 µg/mL"
  }
]
